experimentalSystem: Phosphatidylinositol 4,5-bisphosphate 3-kinase catalytic subunit alpha isoform (Homo sapiens, UniProt P42336)
Sequence (P42336 whole entry, canonical isoform): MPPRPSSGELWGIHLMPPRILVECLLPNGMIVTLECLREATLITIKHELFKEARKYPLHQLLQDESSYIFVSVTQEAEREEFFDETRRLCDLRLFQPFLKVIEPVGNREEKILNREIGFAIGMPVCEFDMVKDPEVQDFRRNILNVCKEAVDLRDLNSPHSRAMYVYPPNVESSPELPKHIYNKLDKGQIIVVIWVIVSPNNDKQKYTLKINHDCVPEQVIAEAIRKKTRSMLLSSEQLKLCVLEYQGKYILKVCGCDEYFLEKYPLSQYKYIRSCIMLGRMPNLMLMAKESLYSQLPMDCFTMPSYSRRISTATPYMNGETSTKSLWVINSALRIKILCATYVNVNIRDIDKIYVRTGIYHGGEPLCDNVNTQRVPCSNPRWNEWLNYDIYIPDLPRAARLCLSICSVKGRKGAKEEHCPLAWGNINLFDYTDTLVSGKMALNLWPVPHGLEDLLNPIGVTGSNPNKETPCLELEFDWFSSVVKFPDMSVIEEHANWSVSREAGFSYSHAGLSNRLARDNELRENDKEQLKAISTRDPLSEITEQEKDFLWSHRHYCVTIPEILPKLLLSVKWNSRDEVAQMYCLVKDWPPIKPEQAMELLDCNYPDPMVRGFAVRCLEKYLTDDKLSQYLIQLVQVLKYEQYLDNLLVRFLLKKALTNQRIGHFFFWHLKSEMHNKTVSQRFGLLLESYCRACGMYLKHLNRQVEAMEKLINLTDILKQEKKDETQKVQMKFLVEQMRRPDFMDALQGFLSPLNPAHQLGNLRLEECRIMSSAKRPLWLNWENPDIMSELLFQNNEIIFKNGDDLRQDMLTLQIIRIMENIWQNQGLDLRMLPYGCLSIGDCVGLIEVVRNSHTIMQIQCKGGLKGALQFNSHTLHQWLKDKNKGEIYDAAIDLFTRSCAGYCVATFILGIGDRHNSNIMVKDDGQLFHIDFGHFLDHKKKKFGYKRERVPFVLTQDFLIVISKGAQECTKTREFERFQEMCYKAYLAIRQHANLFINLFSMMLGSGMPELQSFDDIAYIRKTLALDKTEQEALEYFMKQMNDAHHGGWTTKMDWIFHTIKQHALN
metric: pIC50
Friendly reminder that pIC50 comes from taking -log10 of the concentration in mol/L.

CC(=O)N(C)C1CCN(Cc2cc3nc(-c4cccc5[nH]ccc45)nc(N4CCOCC4)c3s2)C1 (racemic)    6.10
COCC(=O)NC1CCN(Cc2cc3nc(-c4cnc(N)nc4)nc(N4CCOCC4)c3s2)CC1    7.30
CC(=O)N(C)C1CCCN(Cc2cc3nc(-c4cccc5[nH]ccc45)nc(N4CCOCC4)c3s2)C1 (racemic)    5.80

Task: I have this molecule here, CC(=O)NC1CCCN(Cc2cc3nc(-c4cccc5[nH]ccc45)nc(N4CCOCC4)c3s2)C1 (racemic) , and I need its recorded pIC50.
Result: 5.40

Task: Endpoint output: pIC50 of CNC(=O)NC1CCCN(Cc2cc3nc(-c4cccc5[nH]ccc45)nc(N4CCOCC4)c3s2)C1 (racemic) . Value?
Result: 5.40

Task: If you can, please state the reported pIC50 value of `CN(C1CCN(Cc2cc3nc(-c4cccc5[nH]ccc45)nc(N4CCOCC4)c3s2)CC1)S(C)(=O)=O` .
Result: 5.80

Task: Requested read-out: pIC50. Entry: CNC(=O)NC1CCCN(Cc2cc3nc(-c4cnc(N)nc4)nc(N4CCOCC4)c3s2)C1 (racemic)
Result: 7.10

Task: So what does the record say about pIC50 for CNC(=O)NC1CCN(Cc2cc3nc(-c4cnc(N)nc4)nc(N4CCOCC4)c3s2)C1 (racemic) ?
Result: 7.20

Task: Find the recorded pIC50 belonging to `CNC(=O)NC1CCN(Cc2cc3nc(-c4cccc5[nH]ncc45)nc(N4CCOCC4)c3s2)CC1` and report it.
Result: 6.60

Task: Fill in the blank: the reported pIC50 of `CC(=O)N(C)C1CCN(Cc2cc3nc(-c4cccc5[nH]ncc45)nc(N4CCOCC4)c3s2)CC1` is ____.
Result: 6.30

Task: For the molecule shown here, COCC(=O)N(C)C1CCN(Cc2cc3nc(-c4cnc(N)nc4)nc(N4CCOCC4)c3s2)C1 (racemic) , give the reported pIC50.
Result: 7.80

Task: Would you kindly share the measured pIC50 for CN(C1CCCN(Cc2cc3nc(-c4cccc5[nH]ncc45)nc(N4CCOCC4)c3s2)C1)S(C)(=O)=O (racemic) ?
Result: 6.70

Task: For the molecule shown here, CS(=O)(=O)NC1CCCN(Cc2cc3nc(-c4cccc5[nH]ncc45)nc(N4CCOCC4)c3s2)C1 (racemic) , give the reported pIC50.
Result: 6.30

Task: Sample COCC(=O)NC1CCCN(Cc2cc3nc(-c4cccc5[nH]ccc45)nc(N4CCOCC4)c3s2)C1 (racemic) — what was its pIC50?
Result: 5.60

Task: Need pIC50 of CN(C1CCCN(Cc2cc3nc(-c4cccc5[nH]ccc45)nc(N4CCOCC4)c3s2)C1)S(C)(=O)=O (racemic) , thanks.
Result: 6.10

Task: Endpoint output: pIC50 of `COCC(=O)N(C)C1CCN(Cc2cc3nc(-c4cccc5[nH]ncc45)nc(N4CCOCC4)c3s2)CC1` . Value?
Result: 6.30

Task: Which value of pIC50 has been reported for CC(=O)NC1CCCN(Cc2cc3nc(-c4cccc5[nH]ncc45)nc(N4CCOCC4)c3s2)C1 (racemic) in the records?
Result: 6.60

Task: Which pIC50 is reported for this molecule? CNC(=O)NC1CCN(Cc2cc3nc(-c4cccc5[nH]ccc45)nc(N4CCOCC4)c3s2)C1 (racemic)
Result: 5.50

Task: Bench note: what pIC50 did `CNC(=O)NC1CCN(Cc2cc3nc(-c4cnc(N)nc4)nc(N4CCOCC4)c3s2)CC1` show?
Result: 7.60

Task: Given the molecule `CC(=O)N(C)C1CCN(Cc2cc3nc(-c4cccc5[nH]ccc45)nc(N4CCOCC4)c3s2)CC1` , what is its reported pIC50?
Result: 5.50

Task: Quick check: pIC50 of COCC(=O)NC1CCCN(Cc2cc3nc(-c4cccc5[nH]ncc45)nc(N4CCOCC4)c3s2)C1 (racemic) ?
Result: 6.40

Task: I have this molecule here, CC(=O)NC1CCN(Cc2cc3nc(-c4cnc(N)nc4)nc(N4CCOCC4)c3s2)C1 (racemic) , and I need its recorded pIC50.
Result: 7.50

Task: Recorded pIC50 for `CS(=O)(=O)NC1CCN(Cc2cc3nc(-c4cccc5[nH]ccc45)nc(N4CCOCC4)c3s2)CC1` , please?
Result: 5.90

Task: Value lookup for pIC50; key = `COCC(=O)NC1CCN(Cc2cc3nc(-c4cccc5[nH]ncc45)nc(N4CCOCC4)c3s2)CC1`
Result: 6.40

Task: Form field: reported pIC50 of `CS(=O)(=O)NC1CCN(Cc2cc3nc(-c4cnc(N)nc4)nc(N4CCOCC4)c3s2)CC1`
Result: 7.50

Task: Please look up its pIC50: CS(=O)(=O)NC1CCN(Cc2cc3nc(-c4cccc5[nH]ncc45)nc(N4CCOCC4)c3s2)C1 (racemic)
Result: 6.60

Task: Requested read-out: pIC50. Entry: CS(=O)(=O)NC1CCCN(Cc2cc3nc(-c4cccc5[nH]ccc45)nc(N4CCOCC4)c3s2)C1 (racemic)
Result: 5.80
